- Test system: ACHN
- Assay procedure: NCI tumour cell line growth inhibition, 48 h
Calls of active or inactive are those of the source. Rule as the data show it: active = GI50 up to about 1.1 µM and inactive = higher. Residues, ends and D or L forms follow the SMILES beside them. *: point of attachment. Fmoc = O=C(OCC1c2ccccc2-c2ccccc21)*; Boc = CC(C)(C)OC(=O)*
Readout name: GI50

CC(C)(C)OC(=O)NCCCCC(NC(=O)C(Cc1c[nH]c2ccccc12)NC(=O)OCC1c2ccccc2-c2ccccc21)C(=O)N1CCCC1C(=O)NCC(N)=O (stereo not given) (Fmoc-WK(Boc)PG-NH2; configuration not given here)	> 100 µM (inactive)
C[n+]1c2n(c3nc(N)[nH]c(=O)c31)C1OC(C2)C(O)C1O (stereo not given)	> 100 µM (inactive)
COc1cc(C(c2cc(OC)c(OC)c(OC)c2)N2C(=O)CCC2C(=O)O)cc(OC)c1OC (stereo not given)	> 100 µM (inactive)
C/C(=N\Nc1ccc2ccccc2n1)c1ccccc1O	> 100 µM (inactive)

Can you look up the measured GI50 of O=C1Nc2ccccc2/C1=N/Nc1nc(-c2ccccc2)cs1 for me?
24.5 µM (inactive)

Can you check O=C(NCCCl)Nc1cccnc1 next?
13.6 µM (inactive)

Can you check Cc1cc(O)c2c(c1)C(=O)C=C(Br)C2=O next?
15.6 µM (inactive)

Can you check COc1cccc(NC(=O)C(C)(C)C)c1C=O next?
56.2 µM (inactive)

Can you check COc1cc(C2c3cc4c(cc3OC(N3CCCC3)C2C)OCO4)cc(OC)c1O (stereo not given) next?
28.6 µM (inactive)

Can you check CCN1C/C(=C\c2ccc(Cl)cc2)C2=NN(c3ccccc3)C(c3ccc(Cl)cc3)C2C1 (stereo not given) next?
> 100 µM (inactive)
